Hello, the source for this data is patent US20180037568A1, in case you need it.

Test: Mean plasma and tumor concentration, 7-day study in SCID mice
Assay type: in vivo
Settings: mouse, plasma, po, female SCID mice, 100 mg/kg P.O. BID, read-out: Mean Plasma Conc
PROPERTY: concentration at 7 day
Don't forget the unit after the value.

# concentration at 7 day (compound: COc1cc(C)[nH]c(=O)c1CNC(=O)c1c(C)n(C(C)C2CCN(C)C(C(F)(F)F)C2)c2ccccc12 (single isomer, unassigned) ) is 280 ng/mL

###

Assay: Mean plasma and tumor concentration, 7-day study in SCID mice
Assay type: in vivo
Details: mouse, tumor, po, female SCID mice, 200 mg/kg P.O. BID, read-out: Mean Tumor Conc
PROPERTY: concentration at 7 day

Given item COc1cc(C)[nH]c(=O)c1CNC(=O)c1c(C)n(C(C)C2CCN(C)C(C(F)(F)F)C2)c2ccccc12 (single isomer, unassigned) , the value recorded as its concentration at 7 day is 693 ng/g

###

Assay: In vitro metabolism, dog liver microsomes
Format: in vitro ADME
Conditions: 10 μM compound, 0.7 mg protein/mL, read-out: intrinsic clearance
PROPERTY: microsomal CLint at 10 μM (µL/min/mg)
Could you give me the number in µL/min/mg? Just the number is fine.

Reported microsomal CLint at 10 μM for COc1cc(C)[nH]c(=O)c1CNC(=O)c1c(C)n(C(C)C2CCN(C)C(C(F)(F)F)C2)c2ccccc12 (single isomer, unassigned) was 35

###

# pIC50 per entry
Biological target: PRC2 containing wt EZH2 (Homo sapiens)
Construct: made in house
Sequence (Q15910 whole entry): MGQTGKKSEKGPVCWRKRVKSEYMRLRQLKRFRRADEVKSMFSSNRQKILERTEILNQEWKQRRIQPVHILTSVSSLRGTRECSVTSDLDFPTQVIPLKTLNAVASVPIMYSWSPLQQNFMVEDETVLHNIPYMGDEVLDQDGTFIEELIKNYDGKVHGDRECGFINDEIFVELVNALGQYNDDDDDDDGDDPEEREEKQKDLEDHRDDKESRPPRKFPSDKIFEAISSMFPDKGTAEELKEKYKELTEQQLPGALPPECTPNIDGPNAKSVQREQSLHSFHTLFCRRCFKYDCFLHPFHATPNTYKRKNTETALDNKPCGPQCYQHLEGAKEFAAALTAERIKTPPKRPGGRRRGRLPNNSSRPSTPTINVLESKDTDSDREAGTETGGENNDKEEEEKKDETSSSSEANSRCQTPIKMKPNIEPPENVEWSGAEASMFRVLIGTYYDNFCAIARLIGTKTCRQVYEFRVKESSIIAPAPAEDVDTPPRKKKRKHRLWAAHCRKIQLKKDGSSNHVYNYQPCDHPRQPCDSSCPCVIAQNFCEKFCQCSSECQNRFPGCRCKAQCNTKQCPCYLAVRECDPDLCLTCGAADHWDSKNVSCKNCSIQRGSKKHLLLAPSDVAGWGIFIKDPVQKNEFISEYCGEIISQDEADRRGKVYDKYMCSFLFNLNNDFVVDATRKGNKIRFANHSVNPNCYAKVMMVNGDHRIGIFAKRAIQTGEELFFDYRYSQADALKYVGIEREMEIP
Sequence (O75530 whole entry partner): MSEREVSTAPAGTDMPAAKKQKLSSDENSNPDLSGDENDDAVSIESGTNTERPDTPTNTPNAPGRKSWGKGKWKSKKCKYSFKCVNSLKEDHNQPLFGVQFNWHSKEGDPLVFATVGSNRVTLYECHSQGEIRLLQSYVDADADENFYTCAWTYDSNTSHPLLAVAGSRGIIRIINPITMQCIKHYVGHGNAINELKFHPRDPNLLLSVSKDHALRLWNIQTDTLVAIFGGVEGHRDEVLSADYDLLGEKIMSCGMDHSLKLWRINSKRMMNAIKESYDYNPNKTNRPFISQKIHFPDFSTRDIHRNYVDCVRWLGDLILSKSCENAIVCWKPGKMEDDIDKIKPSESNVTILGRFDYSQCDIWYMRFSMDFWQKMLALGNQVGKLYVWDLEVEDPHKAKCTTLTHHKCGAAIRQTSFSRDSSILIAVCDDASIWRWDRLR
Sequence (Q15022 whole entry partner): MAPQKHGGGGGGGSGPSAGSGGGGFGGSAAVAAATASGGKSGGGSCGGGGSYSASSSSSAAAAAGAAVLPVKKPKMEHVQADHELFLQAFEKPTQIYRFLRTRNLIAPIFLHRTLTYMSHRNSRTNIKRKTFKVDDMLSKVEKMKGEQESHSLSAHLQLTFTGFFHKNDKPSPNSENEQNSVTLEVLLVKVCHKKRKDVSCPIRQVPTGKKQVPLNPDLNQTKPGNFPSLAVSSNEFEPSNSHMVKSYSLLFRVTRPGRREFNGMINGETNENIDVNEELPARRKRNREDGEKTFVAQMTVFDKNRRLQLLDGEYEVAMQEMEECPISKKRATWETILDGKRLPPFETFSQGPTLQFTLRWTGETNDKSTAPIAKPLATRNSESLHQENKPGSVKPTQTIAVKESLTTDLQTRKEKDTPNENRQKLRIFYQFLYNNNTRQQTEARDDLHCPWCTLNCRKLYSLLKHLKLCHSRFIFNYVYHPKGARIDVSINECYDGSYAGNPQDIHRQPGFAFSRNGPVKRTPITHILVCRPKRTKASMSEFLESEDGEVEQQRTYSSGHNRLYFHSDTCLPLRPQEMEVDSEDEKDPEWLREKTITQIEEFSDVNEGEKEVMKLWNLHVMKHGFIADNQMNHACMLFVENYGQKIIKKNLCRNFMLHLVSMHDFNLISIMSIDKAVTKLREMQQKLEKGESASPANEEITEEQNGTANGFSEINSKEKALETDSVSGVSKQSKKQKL
Sequence (Q09028 whole entry partner): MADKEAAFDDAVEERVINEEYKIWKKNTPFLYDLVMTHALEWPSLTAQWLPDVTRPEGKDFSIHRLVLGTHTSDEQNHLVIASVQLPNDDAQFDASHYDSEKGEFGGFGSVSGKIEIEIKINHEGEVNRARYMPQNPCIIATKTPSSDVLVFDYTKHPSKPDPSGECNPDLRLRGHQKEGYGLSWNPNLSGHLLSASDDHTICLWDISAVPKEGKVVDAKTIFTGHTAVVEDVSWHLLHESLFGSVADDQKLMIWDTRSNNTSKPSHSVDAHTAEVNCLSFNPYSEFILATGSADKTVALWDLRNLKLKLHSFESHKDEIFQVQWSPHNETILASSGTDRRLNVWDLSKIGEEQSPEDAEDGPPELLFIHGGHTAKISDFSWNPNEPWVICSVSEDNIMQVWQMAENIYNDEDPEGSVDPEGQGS
Sequence (Q6ZN18 whole entry partner): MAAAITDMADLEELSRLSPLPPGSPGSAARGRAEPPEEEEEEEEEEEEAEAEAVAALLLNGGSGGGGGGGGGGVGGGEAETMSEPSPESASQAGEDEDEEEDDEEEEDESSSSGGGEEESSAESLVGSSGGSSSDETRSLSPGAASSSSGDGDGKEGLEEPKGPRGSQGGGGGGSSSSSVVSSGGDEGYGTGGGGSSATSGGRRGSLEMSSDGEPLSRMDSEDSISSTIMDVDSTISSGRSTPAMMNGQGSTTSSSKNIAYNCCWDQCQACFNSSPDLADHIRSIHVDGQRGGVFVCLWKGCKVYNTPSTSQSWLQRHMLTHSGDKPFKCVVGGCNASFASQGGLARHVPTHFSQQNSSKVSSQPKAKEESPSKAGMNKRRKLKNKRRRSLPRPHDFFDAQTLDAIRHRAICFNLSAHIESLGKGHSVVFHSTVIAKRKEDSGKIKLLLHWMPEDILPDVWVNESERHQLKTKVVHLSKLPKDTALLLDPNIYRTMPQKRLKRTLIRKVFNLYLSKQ
Experiment: EZH2 pep BSA Brij 4.0 LowE (IC50): 3H-SAM incorporation into biotinylated H3 peptide
Assay type: biochemical
Details: EZH2 pep BSA Brij 4.0 LowE (IC50), 20 pM PRC2 wt EZH2, 0.9 μM 3H-SAM, biotinylated H3 peptide substrate, 2 μM H3K27me3 activating peptide
pIC50: −log10 of the molar value.

The examples below pair each entry with its known result.
CCS(=O)(=O)N1CCC(C(C)n2c(C)c(C(=O)NCc3c(OC)cc(C)[nH]c3=O)c3ccccc32)CC1C (stereo not shown) [Compound 93]
6.00 to 7.00
Cc1cc(C)c(CNC(=O)c2c(C)n(C(C)C3CCN(CC(C)(F)F)C(C)C3)c3ccccc23)c(=O)[nH]1 (stereo not shown) [Compound 48]
6.00 to 7.00
COc1cc(C)[nH]c(=O)c1CNC(=O)c1c(C)n(C(C)C2CCN(C)C(C(F)(F)F)C2)c2ccccc12 (single isomer, unassigned) [Compound 15]
> 7.00
COc1cc(C)[nH]c(=O)c1CNC(=O)c1c(C)n(C(C)C2CCN(CC(F)(F)F)C(C)C2)c2ccccc12 (stereo not shown) [Compound 47]
6.00 to 7.00
COc1cc(C)[nH]c(=O)c1CNC(=O)c1c(C)n(C(C)C2CCN(CC(C)(F)F)C(C)C2)c2ccccc12 (stereo not shown) [Compound 73]
> 7.00

Please fill in: pIC50 reported for COc1cc(C)[nH]c(=O)c1CNC(=O)c1c(C)n(C(C)C2CCN(CC(C)(F)F)C(C)C2)c2ccccc12 (stereo not shown) [Compound 70] = > 7.00

Form field pIC50, entry COc1cc(C)[nH]c(=O)c1CNC(=O)c1c(C)n(C(C)C2CCN(C)C(c3cccc(C(=O)O)c3)C2)c2ccccc12 (stereo not shown) [Compound 97] : > 7.00
